# test target: Cytochrome P450 2A6 (Homo sapiens, UniProt P11509); further: in other assays of this panel Not Active means under 50% inhibition at 10 µM
# Sequence (P11509 whole entry): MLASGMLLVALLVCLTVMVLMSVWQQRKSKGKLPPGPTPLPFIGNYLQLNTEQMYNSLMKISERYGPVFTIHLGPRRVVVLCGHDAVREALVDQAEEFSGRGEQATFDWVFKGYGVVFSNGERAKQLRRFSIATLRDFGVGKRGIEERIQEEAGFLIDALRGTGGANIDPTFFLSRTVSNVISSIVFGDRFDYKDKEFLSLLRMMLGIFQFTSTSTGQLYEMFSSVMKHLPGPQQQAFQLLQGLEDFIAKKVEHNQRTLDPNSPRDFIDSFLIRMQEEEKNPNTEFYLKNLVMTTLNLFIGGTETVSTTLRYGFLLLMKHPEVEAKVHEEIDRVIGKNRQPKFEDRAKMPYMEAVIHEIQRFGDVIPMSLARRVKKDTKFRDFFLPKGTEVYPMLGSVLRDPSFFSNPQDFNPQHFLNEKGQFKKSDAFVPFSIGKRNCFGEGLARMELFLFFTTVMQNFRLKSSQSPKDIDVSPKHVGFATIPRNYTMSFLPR
# measurement parameters: bti-tn-5b1-4
readout name: IC50

Examples from the recorded data:
Identify measured IC50 corresponding to NC(=O)c1cccnc1 [NIACINAMIDE] Not Active

Identify measured IC50 corresponding to CCc1ccc(CCOc2ccc(CC3SC(=O)NC3=O)cc2)nc1 (centres undefined) Not Active

Identify measured IC50 corresponding to O=C(O)CCCCC1CCSS1 (centres undefined) Not Active

Identify measured IC50 corresponding to COC(=O)Nc1nc2cc(C(=O)c3ccc(F)cc3)ccc2[nH]1 Not Active

Identify measured IC50 corresponding to COc1cc(OC)c(C(=O)CCCN2CCCC2)c(OC)c1 Not Active

Identify measured IC50 corresponding to CC(O)(P(=O)(O)O)P(=O)(O)O Not Active

Continuing:
Identify measured IC50 corresponding to NS(=O)(=O)c1cc(C2(O)NC(=O)c3ccccc32)ccc1Cl (centres undefined) Not Active

Identify measured IC50 corresponding to C[C@H]1COc2c(N3CCN(C)CC3)c(F)cc3c(=O)c(C(=O)O)cn1c23.C[C@H]1COc2c(N3CCN(C)CC3)c(F)cc3c(=O)c(C(=O)O)cn1c23.O Not Active

Identify measured IC50 corresponding to O=c1[nH]c(=O)n([C@H]2C[C@H](O)[C@@H](CO)O2)cc1F Not Active
